Read-out: C-C motif chemokine 2 (Homo sapiens)
Test: BSK_KF3CT_MCP1: BioMAP Diversity Plus: KF3CT Assay for Monocyte Chemoattractant Protein 1 (MCP1/CCL2) Biomarker Activity (AID 2283073)
Conditions: primary human keratinocytes with fibroblasts; actives raise or lower the signal
Procedure: BSK_KF3CT is a cell-based, multiplexed-readout assay that uses keratinocytes and foreskin fibroblasts, a human skin primary cell co-culture, with measurements taken at 24 hours after chemical dosing in a 96-well plate.BSK_KF3CT_MCP1 is an assay component measured in the BSK_KF3CT assay. It measures MCP-1 antibody related to regulation of gene expression using ELISA technology.Data from the assay component BSK_KF3CT_MCP1 was analyzed into 1 assay endpoint. […]
Activity calls are given as the source filed them. The calls were made as follows: active = hit-call score of the fitted dose curve at least 0.9, where 1 is the maximum; inactive = score below 0.9.
parameter: AC50

// worked examples, AC50 included
• CC1(C)CCC(=Cc2ccc(Cl)cc2)C1(O)Cn1cncn1 (stereo unspecified) = inactive
• CO/N=C(/C1=NOCCO1)c1ccccc1Oc1ncnc(Oc2ccccc2Cl)c1F = 28.6 µM (active)
• CCCC(=NOCC)C1=C(O)CC(CC(C)SCC)CC1=O (stereo unspecified) = inactive
• Cc1c(COC(=O)[C@@H]2[C@H](/C=C(\Cl)C(F)(F)F)C2(C)C)cccc1-c1ccccc1 = inactive

Given CC(C)NC(=O)N1CC(=O)N(c2cc(Cl)cc(Cl)c2)C1=O , state its recorded AC50.
inactive
